Recorded measurements of photoluminescence quantum yield, one per entry
# Measurement notes: photoluminescence quantum yield (fraction); solvent given as SMILES
# Measurement context: in c1ccc2c(c1)c1ccccc1n2-c1ccc(-c2ccc(-n3c4ccccc4c4ccccc43)cc2)cc1
Could you respond with only the numeric value?

Exercise: # return recorded photoluminescence quantum yield for input `N#Cc1cc(N2c3ccccc3Oc3ccccc32)c(N2c3ccccc3Oc3ccccc32)cc1C#N`
Solution: 0.064

Exercise: # return recorded photoluminescence quantum yield for input `CC(C)(C)c1ccc2c(c1)c1cc(C(C)(C)C)ccc1n2-c1ccc2c(c1)C(=O)c1ccc(-n3c4ccc(C(C)(C)C)cc4c4cc(C(C)(C)C)ccc43)cc1C2=O`
Solution: 0.52

Exercise: # return recorded photoluminescence quantum yield for input `O=c1c2ccc(-c3ccc(N(c4ccccc4)c4ccccc4)cc3)cc2sc2cccc(-c3ccc(N(c4ccccc4)c4ccccc4)cc3)c12`
Solution: 0.025

Exercise: # return recorded photoluminescence quantum yield for input `O=c1c2ccc(-c3ccc(N(c4ccccc4)c4ccccc4)cc3)cc2sc2cc(-c3ccc(N(c4ccccc4)c4ccccc4)cc3)ccc12`
Solution: 0.35

Exercise: # return recorded photoluminescence quantum yield for input `C(=C\c1ccc(-n2c3ccccc3c3ccccc32)cc1)/c1ccc(-c2ccc(/C=C/c3ccc(-n4c5ccccc5c5ccccc54)cc3)cc2)cc1`
Solution: 0.98

Exercise: # return recorded photoluminescence quantum yield for input `CC(C)(C)c1cc(-c2cc3nc4c5ccc(N6c7ccccc7Oc7ccccc76)cc5c5cc(N6c7ccccc7Oc7ccccc76)ccc5c4nc3cc2-c2cc(C(C)(C)C)cc(C(C)(C)C)c2)cc(C(C)(C)C)c1`
Solution: 0.83
